The values you see were collected from paper PMC5540273.

Tested on: DLK;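 note: KINOMEscan kinase panel screen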
Construct: gene MAP3K12
Details: concentration: 1 μM, replicates: in singlicate; n = 1
Outcome: satisfied for %Inh of at least 8%; not satisfied for anything lower.

Worked set:
{"columns": ["COMPOUND", "CLASS_ASSIGNMENT"],
 "data": [
  ["Cn1cc(-c2[nH]c3cc(NC(=O)[C@H](N)C4CCCCC4)cc4c3c2C=NNC4=O)cn1", "satisfied"],
  ["Cc1occc1-c1ncc(OC[C@@H](N)Cc2c[nH]c3ccccc23)cc1-c1ccc2[nH]nc(C)c2c1.O=C(O)C(F)(F)F [GSK682037]", "not satisfied"],
  ["COc1ccc(CNC(=O)NC2CCN(c3ccnc(Nc4ccc(F)cc4)n3)CC2)cc1 [GSK1379788]", "satisfied"],
  ["C[C@@H]1CC[C@@H](C(=O)Nc2ccccc2)CN1c1cc(-c2ccc3c(N)n[nH]c3c2)nc(N)n1 [GSK2286062]", "satisfied"],
  ["COC(=O)Nc1nc2ccc(Oc3ccc(NC(=O)Nc4cc(C(F)(F)F)ccc4F)cc3)cc2n1C.Cl [GW692089]", "satisfied"],
  ["Cc1cccc(NC(=O)Nc2ccc(Oc3ncnc4ccn(C)c34)cc2)c1", "not satisfied"]
]}

Now turn to the next compound.
Task: Is it the case that CCn1c(-c2nonc2N)nc2c(C#CC(C)(C)O)nc(OC[C@H](N)c3ccccc3)cc21 [GSK943949] has %Inh reaching or exceeding 8%?
Result: not satisfied
